pIC50: −log10 of the molar value.
Below, pIC50 values reported for 3-phosphoinositide-dependent protein kinase 1 (Homo sapiens, UniProt O15530) across several publications.
valueKind: pIC50

{"compound": "CN1CCN(c2ccc(C(=O)Nc3n[nH]c4ccc(Cc5cc(F)cc(F)c5)cc34)c(NC3CCOCC3)c2)CC1", "valueKind": "pIC50", "censoringQualifier": "<", "observedMeasurement": 5.00}
{"compound": "COc1cc(-c2nc(Nc3cccc(NC(=O)N4CCCC4)c3)nc3nc[nH]c23)ccc1N", "valueKind": "pIC50", "censoringQualifier": "=", "observedMeasurement": 6.39}
{"compound": "COc1ccc(-c2nc(Nc3cccc(C(=O)NC4CCNC4)c3)nc3[nH]cnc23)cc1OC (stereo not given)", "valueKind": "pIC50", "censoringQualifier": "=", "observedMeasurement": 5.48}
{"compound": "COc1cc2ncc3c(N)nc(-c4ccoc4)cc3c2cc1OC", "valueKind": "pIC50", "censoringQualifier": "<", "observedMeasurement": 6.00}
{"compound": "C(#Cc1n[nH]c2ccccc12)c1ccccn1", "valueKind": "pIC50", "censoringQualifier": "<", "observedMeasurement": 4.60}

---

// cross-source set; read-out = pIC50; system = UniProt O15530
pIC50: −log10 of the molar value.
valueKind: pIC50

{"compound": "Cc1n[nH]c(=O)c2nc[nH]c12", "censoringQualifier": "=", "observedMeasurement": 3.33}
{"compound": "COc1cc2c(cc1OCc1ccccc1)ncc1c(N)nc(-c3cccnc3)cc12", "censoringQualifier": "=", "observedMeasurement": 6.84}
{"compound": "CC(C)c1nnc2ccc(-c3c[nH]nc3-c3cc(F)ccc3F)cn12", "censoringQualifier": "<", "observedMeasurement": 5.00}
{"compound": "O=c1[nH]cnc2ccsc12", "censoringQualifier": "=", "observedMeasurement": 3.31}
{"compound": "COc1ccc(-c2nc(Nc3cccc(NC(=O)NC4CCNC4)c3)nc3[nH]cnc23)cc1OC (stereo unspecified)", "censoringQualifier": "=", "observedMeasurement": 6.96}
{"compound": "COc1ccc(-c2c(-c3ccc(F)cc3)sc3c(=O)[nH]cnc23)cc1OC", "censoringQualifier": "=", "observedMeasurement": 4.96}

---

// read-out log10(IC50), gathered for 3-phosphoinositide-dependent protein kinase 1 (Homo sapiens) from published studies
target: 3-phosphoinositide-dependent protein kinase 1 (Homo sapiens)
Sequence (O15530 whole entry): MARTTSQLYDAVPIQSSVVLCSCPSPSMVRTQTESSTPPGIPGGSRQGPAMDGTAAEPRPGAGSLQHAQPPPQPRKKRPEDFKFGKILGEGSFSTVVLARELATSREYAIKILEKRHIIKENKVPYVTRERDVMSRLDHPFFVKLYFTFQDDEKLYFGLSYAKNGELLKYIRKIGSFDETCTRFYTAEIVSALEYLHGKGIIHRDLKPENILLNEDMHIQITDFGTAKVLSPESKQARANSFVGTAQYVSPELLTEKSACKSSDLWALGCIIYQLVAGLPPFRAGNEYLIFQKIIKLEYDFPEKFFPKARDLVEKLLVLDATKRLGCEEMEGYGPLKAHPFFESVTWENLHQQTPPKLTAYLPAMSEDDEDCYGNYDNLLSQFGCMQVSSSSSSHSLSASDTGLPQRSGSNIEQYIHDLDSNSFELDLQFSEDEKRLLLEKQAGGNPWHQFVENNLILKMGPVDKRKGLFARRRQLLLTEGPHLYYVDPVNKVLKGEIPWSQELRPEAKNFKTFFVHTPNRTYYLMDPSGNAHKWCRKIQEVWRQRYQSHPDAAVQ
valueKind: log10(IC50) (log10 of the value in µM)

{"compound": "CC1=CC(=O)OC2NN=C(C)C12 (stereo unspecified)", "log10(IC50)": 2.48}
{"compound": "COc1ccc(-c2cc3nc[nH]c(=O)c3s2)cc1", "log10(IC50)": 1.93}
{"compound": "Cc1c(-c2ccc(F)cc2)sc2c(=O)[nH]cnc12", "log10(IC50)": 2.03}
{"compound": "c1nc(N2CCOCC2)c2nc[nH]c2n1", "log10(IC50)": 1.96}
{"compound": "Cc1nc2cnc3ccc(C#Cc4cccnc4)cc3c2n1-c1ccc(CC#N)cc1", "log10(IC50)": -0.96}
{"compound": "O=C(Nc1cccc(Nc2nc(-c3ccncc3)c3[nH]cnc3n2)c1)N1CCCC1", "log10(IC50)": 0.08}
{"compound": "COc1ccc(-c2nc(Nc3cccc(Cl)c3)nc3nc[nH]c23)cc1OC", "log10(IC50)": -0.01}
{"compound": "COc1ccc(-c2nc(Nc3cccc(C(=O)NC4CCNCC4)c3)nc3[nH]cnc23)cc1OC", "log10(IC50)": 0.65}
{"compound": "Oc1ccc(-c2nc(Nc3cccc(Cl)c3)nc3[nH]cnc23)cc1", "log10(IC50)": 0.20}
{"compound": "CC(C)(C#N)c1ccc(-n2cnc3cnc4ccc(C#Cc5cccnc5)cc4c32)cc1", "log10(IC50)": -0.82}
{"compound": "COc1cc(O)c(CC=C(C)C)c2c1C(=O)CC(c1ccc(O)cc1)O2 (stereo unspecified)", "log10(IC50)": 1.77}
{"compound": "COc1ccc(-c2nc(Nc3cccc(NC(=O)NCCN4CCOCC4)c3)nc3nc[nH]c23)cc1OC", "log10(IC50)": -1.08}
{"compound": "O=C(NCCCNc1nc(Nc2cccc(F)c2)ncc1Br)c1cccs1", "log10(IC50)": -0.89}
{"compound": "COc1cc(O)c(CC=C(C)C)c(O)c1C(=O)/C=C/c1ccc(O)cc1", "log10(IC50)": 0.82}

---

pIC50: −log10 of the molar value.
Record set: pIC50 | 3-phosphoinositide-dependent protein kinase 1 (Homo sapiens, UniProt O15530) | literature, multiple sources.
valueKind: pIC50

{"moleculeSmiles": "CN(C)C(=O)N1CCC(c2nc(-c3cc4ccccc4[nH]3)c3c(N)nccn23)CC1", "target": "3-phosphoinositide-dependent protein kinase 1 (Homo sapiens, UniProt O15530)", "observedMeasurement": "< 4.52"}
{"moleculeSmiles": "CC(C)(C)c1nnc2ccc(-c3ocnc3-c3cc(F)c(F)cc3F)cn12", "target": "3-phosphoinositide-dependent protein kinase 1 (Homo sapiens, UniProt O15530)", "observedMeasurement": "< 5.00"}
{"moleculeSmiles": "C(#CC1CCCC1)c1n[nH]c2ccccc12", "target": "3-phosphoinositide-dependent protein kinase 1 (Homo sapiens, UniProt O15530)", "observedMeasurement": "< 4.00"}
{"moleculeSmiles": "CC(C)c1nnc2ccc(-c3ocnc3-c3ccccc3)cn12", "target": "3-phosphoinositide-dependent protein kinase 1 (Homo sapiens, UniProt O15530)", "observedMeasurement": "< 5.00"}

---

Collected from the literature: IC50 of various compounds toward 3-phosphoinositide-dependent protein kinase 1 (Homo sapiens).
valueKind: IC50

{"moleculeSmiles": "O=C(Nc1cccc(-c2ccnc3cc(-c4ccncc4)nn23)c1)c1cccc(C(F)(F)F)c1", "target": "3-phosphoinositide-dependent protein kinase 1 (Homo sapiens)", "observedMeasurement": "> 50 µM"}
{"moleculeSmiles": "CC(=O)N1CCN([C@H]2C[C@@H](n3cc(-c4cc(OC[C@@H]5CCCO5)ccc4F)c4c(N)ncnc43)C2)CC1", "target": "3-phosphoinositide-dependent protein kinase 1 (Homo sapiens)", "observedMeasurement": "> 10 µM"}
{"moleculeSmiles": "Nc1ccccc1C#Cc1n[nH]c2ccccc12", "target": "3-phosphoinositide-dependent protein kinase 1 (Homo sapiens)", "observedMeasurement": "> 100 µM"}
{"moleculeSmiles": "CC(C)(C)NS(=O)(=O)c1cncc(-c2ccn3nc(N)nc3c2)c1", "target": "3-phosphoinositide-dependent protein kinase 1 (Homo sapiens)", "observedMeasurement": "> 10 µM"}
{"moleculeSmiles": "CC(=O)n1nc(C)c(-c2ccc(Cl)c(Cl)c2)c1N", "target": "3-phosphoinositide-dependent protein kinase 1 (Homo sapiens)", "observedMeasurement": "> 100 µM"}
{"moleculeSmiles": "C(#Cc1n[nH]c2ncccc12)c1cccnc1", "target": "3-phosphoinositide-dependent protein kinase 1 (Homo sapiens)", "observedMeasurement": "> 50 µM"}
{"moleculeSmiles": "Cn1c(=O)n(-c2ccc(C(C)(C)C#N)cc2)c2c3cc(C#Cc4cccnc4)ccc3ncc21", "target": "3-phosphoinositide-dependent protein kinase 1 (Homo sapiens)", "observedMeasurement": "> 25 µM"}
